Where do the numbers come from? From patent US20240398784A1.

target: LRRK2 G2019S (Homo sapiens, UniProt Q5S007, G2019S); assay: LRRK2 G2019S Km ATP LanthaScreen assay; assay type: biochemical; details: read-out: LRRK2 pIC50 (converted)
Sequence (Q5S007 whole entry G2019S): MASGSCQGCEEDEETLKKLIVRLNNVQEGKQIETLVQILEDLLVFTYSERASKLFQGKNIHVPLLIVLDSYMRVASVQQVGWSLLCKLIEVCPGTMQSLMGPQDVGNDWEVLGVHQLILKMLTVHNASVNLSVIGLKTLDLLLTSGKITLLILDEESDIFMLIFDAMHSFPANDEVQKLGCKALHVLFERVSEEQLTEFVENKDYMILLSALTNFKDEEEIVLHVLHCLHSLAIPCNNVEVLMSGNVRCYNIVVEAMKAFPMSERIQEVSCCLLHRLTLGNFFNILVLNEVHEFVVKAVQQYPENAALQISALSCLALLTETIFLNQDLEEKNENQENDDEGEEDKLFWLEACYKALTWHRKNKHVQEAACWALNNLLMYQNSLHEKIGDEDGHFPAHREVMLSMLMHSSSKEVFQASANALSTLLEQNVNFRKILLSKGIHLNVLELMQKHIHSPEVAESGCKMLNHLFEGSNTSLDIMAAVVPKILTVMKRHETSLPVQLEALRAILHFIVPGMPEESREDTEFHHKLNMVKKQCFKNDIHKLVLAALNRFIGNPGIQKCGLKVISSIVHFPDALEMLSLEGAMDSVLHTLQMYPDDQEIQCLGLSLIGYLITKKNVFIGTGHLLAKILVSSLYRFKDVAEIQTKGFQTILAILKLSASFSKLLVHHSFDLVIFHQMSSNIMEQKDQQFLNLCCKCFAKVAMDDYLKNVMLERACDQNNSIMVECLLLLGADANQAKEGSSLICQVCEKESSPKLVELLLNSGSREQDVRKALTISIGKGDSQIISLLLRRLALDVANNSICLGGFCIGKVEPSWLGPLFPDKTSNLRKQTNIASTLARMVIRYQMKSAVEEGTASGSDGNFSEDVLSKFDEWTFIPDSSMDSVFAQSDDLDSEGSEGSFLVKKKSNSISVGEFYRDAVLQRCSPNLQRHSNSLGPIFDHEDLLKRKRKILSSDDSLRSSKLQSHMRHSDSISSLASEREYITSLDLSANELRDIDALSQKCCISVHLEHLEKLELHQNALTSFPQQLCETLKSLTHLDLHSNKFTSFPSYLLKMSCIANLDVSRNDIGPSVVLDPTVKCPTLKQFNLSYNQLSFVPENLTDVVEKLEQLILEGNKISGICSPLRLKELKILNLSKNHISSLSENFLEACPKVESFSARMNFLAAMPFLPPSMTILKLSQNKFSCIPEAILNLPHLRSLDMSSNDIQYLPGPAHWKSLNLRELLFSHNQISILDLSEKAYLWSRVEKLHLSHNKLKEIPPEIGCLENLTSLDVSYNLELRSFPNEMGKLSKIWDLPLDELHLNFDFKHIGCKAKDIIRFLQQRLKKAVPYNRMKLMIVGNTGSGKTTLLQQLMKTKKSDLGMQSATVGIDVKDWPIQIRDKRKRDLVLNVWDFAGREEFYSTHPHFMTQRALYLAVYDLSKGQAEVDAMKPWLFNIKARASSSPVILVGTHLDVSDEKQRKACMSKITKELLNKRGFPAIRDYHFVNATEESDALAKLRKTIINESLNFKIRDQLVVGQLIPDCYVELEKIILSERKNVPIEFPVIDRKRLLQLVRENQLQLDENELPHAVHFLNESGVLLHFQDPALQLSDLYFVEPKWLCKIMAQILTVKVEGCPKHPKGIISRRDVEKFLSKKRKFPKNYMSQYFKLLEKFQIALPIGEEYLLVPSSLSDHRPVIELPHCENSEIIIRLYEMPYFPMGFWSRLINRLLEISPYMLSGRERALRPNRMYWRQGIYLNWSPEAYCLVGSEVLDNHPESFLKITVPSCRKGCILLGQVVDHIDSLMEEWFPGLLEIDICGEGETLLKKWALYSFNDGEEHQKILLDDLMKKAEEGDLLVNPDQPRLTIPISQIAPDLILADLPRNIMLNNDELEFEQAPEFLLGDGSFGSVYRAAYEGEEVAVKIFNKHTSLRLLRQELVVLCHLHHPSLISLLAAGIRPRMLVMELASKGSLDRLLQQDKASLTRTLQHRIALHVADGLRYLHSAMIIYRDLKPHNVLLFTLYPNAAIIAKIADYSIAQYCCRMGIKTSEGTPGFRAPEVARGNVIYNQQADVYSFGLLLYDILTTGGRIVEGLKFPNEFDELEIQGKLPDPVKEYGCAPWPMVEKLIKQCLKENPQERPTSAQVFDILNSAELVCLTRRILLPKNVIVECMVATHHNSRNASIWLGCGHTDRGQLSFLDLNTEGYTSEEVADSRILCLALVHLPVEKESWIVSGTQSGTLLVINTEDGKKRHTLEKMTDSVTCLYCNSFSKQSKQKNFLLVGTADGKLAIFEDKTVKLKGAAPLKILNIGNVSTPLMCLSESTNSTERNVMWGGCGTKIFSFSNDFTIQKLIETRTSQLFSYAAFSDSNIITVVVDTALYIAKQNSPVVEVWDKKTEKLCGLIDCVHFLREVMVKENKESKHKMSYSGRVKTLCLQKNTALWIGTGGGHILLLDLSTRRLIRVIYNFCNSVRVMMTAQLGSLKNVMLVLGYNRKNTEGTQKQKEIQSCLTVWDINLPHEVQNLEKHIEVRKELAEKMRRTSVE
# maps each entry to its IC50
# output: bare number, implied unit nM

compound="Cc1cc2cnc(NC(=O)C3CC3C(C)(C)F)cc2cc1C1CCN(C2(C)COCC2O)CC1 (single isomer, unassigned) [Ex-15.6]" quantity_unit=nM result_number=0.501
compound="CC1C(C(=O)Nc2cc3cc(C4CCN(C5(C)COCC5O)CC4)c(Cl)cc3cn2)C1c1ccccn1 (single isomer, unassigned) [Ex-4.51]" quantity_unit=nM result_number=83.2

Turning to the following compound.
Query :: Name the reported IC50 value associated with the compound CC(C)(O)C1CC1C(=O)Nc1cc2cc(C3CCN(C4(C)COCC4F)CC3)c(Cl)cc2cn1 (single isomer, unassigned) [Ex-6.29]
Result :: 24.5

###

# maps each entry to its IC50
molecular target: LRRK2 G2019S (Homo sapiens, UniProt Q5S007, G2019S); test: LRRK2 G2019S Km ATP LanthaScreen assay; assay type: biochemical; conditions: read-out: LRRK2 pIC50 (converted)
# output: bare number, implied unit nM

Query :: Name the reported IC50 value associated with the compound CC(C)n1nccc1C1CC1C(=O)Nc1cc2cc(C3CCN(C4(C)COCC4O)CC3)c(Cl)cc2cn1 (single isomer, unassigned) [Ex-4.63]
Result :: 22.4

Query :: Please do the same for COC1COCC1N1CCC(c2cc3cc(NC(=O)C4CC45CCOCC5)ncc3cc2Cl)CC1 (single isomer, unassigned) [Ex-6.53] as well.
Result :: 3.39

Query :: Please do the same for CC1C(C(=O)Nc2cc3cc(C4CCN(C5(C)COCC5O)CC4)c(Cl)cc3cn2)C1c1ccccn1 (single isomer, unassigned) [Ex-4.52] as well.
Result :: 15.1

Query :: Please do the same for CC(C(=O)Nc1cc2cc(C3(C#N)CC34CC4)ccc2cn1)c1cnn(C)c1 (stereo not shown) [Ex-2.111] as well.
Result :: 2.24

Query :: Please do the same for N#CC1(c2cc3cc(NC(=O)C4CC4)ncc3cc2F)CC12CC2 (single isomer, unassigned) [Ex-18.9] as well.
Result :: 35.5

Query :: Please do the same for CC1(N2CCC(c3cc4cc(NC(=O)C5CC5c5ccccn5)ncc4cc3Cl)CC2)CCOC1 (single isomer, unassigned) [Ex-6.34] as well.
Result :: 0.977

Query :: Please do the same for N#CC1(c2ccc3cnc(NC(=O)C4CC4c4ccccn4)cc3c2)CC12CC2 (stereo not shown) [Ex-2.39] as well.
Result :: 2.29

###

# maps each entry to its IC50
target: LRRK2 G2019S (Homo sapiens, UniProt Q5S007, G2019S); experiment: LRRK2 G2019S Km ATP LanthaScreen assay; type: biochemical; settings: read-out: LRRK2 pIC50 (converted)
# output: bare number, implied unit nM

Reference set (2 entries):
molecule="N#CC1(c2ccc3cnc(NC(=O)C4CC4)cc3c2)CC12CC2 (single isomer, unassigned) [Ex-18.1]" metric=IC50 result_number=2.29
molecule="CC1(C)COCC1(C)N1CCC(c2cc3cc(NC(=O)C4CC45CCOCC5)ncc3cc2Cl)CC1 (single isomer, unassigned) [Ex-6.18]" metric=IC50 result_number=0.708

Turning to the following molecule.
Query :: Name the reported IC50 value associated with the molecule CC1(N2CCC(c3cc4cc(NC(=O)C5CC56CCOC6)ncc4cc3Cl)CC2)COCC1F (single isomer, unassigned) [Ex-6.8]
Result :: 34.7
